- Test system: aminopeptidase (AP)
- procedure-details: Cleavage of [Ia-X] constructs by aminopeptidase (AP), LC/MS for complete degradation
- Assay type: biochemical
quantity-kind: Detectable after 24 h incubation with AP

[[record]]
molecule = "CC(C)[C@H](N)C(=O)O [Valine]"
quantity_kind = "Detectable after 24 h incubation with AP"
result = "+"

[[record]]
molecule = "N[C@@H](CO)C(=O)O [Serine]"
quantity_kind = "Detectable after 24 h incubation with AP"
result = "−"

[[record]]
molecule = "NC(=O)C[C@H](N)C(=O)O [Asparagine]"
quantity_kind = "Detectable after 24 h incubation with AP"
result = "+"

[[record]]
molecule = "N[C@@H](Cc1ccccc1)C(=O)O [Phenylalanine]"
quantity_kind = "Detectable after 24 h incubation with AP"
result = "−"

[[record]]
molecule = "CC[C@H](C)[C@H](N)C(=O)O [Isoleucine]"
quantity_kind = "Detectable after 24 h incubation with AP"
result = "+"

[[record]]
molecule = "N[C@@H](CC(=O)O)C(=O)O [Aspartic acid]"
quantity_kind = "Detectable after 24 h incubation with AP"
result = "+"

[[record]]
molecule = "N[C@@H](Cc1c[nH]cn1)C(=O)O [Histidine]"
quantity_kind = "Detectable after 24 h incubation with AP"
result = "+"

[[record]]
molecule = "C[C@@H](O)[C@H](N)C(=O)O [Threonine]"
quantity_kind = "Detectable after 24 h incubation with AP"
result = "+"

[[record]]
molecule = "N[C@@H](CCC(=O)O)C(=O)O [Glutamic acid]"
quantity_kind = "Detectable after 24 h incubation with AP"
result = "−"

[[record]]
molecule = "N[C@@H](CS)C(=O)O [Cysteine]"
quantity_kind = "Detectable after 24 h incubation with AP"
result = "−"

[[record]]
molecule = "NC(=O)CC[C@H](N)C(=O)O [Glutamine]"
quantity_kind = "Detectable after 24 h incubation with AP"
result = "+"

[[record]]
molecule = "CSCC[C@H](N)C(=O)O [Methionine]"
quantity_kind = "Detectable after 24 h incubation with AP"
result = "−"

